Items are presented alongside their recorded koff.
# target or test system: cynomolgus CD19 (cynomolgus)
# assay protocol: Octet HTX (ForteBio), IgG on AHC sensor, 1:1 fit
// note: answer is a bare numeric in s⁻¹

Solved entries:
[
  {
    "binder": "CNG-CD19-709 (antibody, V domains shown) VH: QVQLQESGPGLVKPSQTLSLTCTVSGGSISTSTMGVGWIRQHPGKGLEWIGFIWWDDDKRYNPNLKSRVTMSVDTSKNQFSLKLSSVTAADTAVYYCARMELWSYYFDPWGQGTLVTVSS VL: EIVLTQSPATLSLSPGERATLSCSASSSVGYMHWYQQKPGQAPRLLIYDTSKLAFGIPARFSGSGSGTDFTLTISSLEPEDFAVYYCFQGSVYPFTFGQGTKLEIK",
    "koff [s⁻¹]": 0.000168
  },
  {
    "binder": "CNG-CD19-702 (antibody, V domains shown) VH: QVQLQESGPGLVKPSQTLSLTCTVSGGSTSTSGMGVSWIRQHPGKGLEWIGHIWWDDDKRYNPVLKSRVTISVDTSKNQFSLKLSSVTAADTAVYYCARMELWSYYFDPWGQGTLVTVSS VL: EIVLTQSPATLSLSPGERATLSCSASSSVSYMHWYQQKPGQAPRLLIYDTSKLASGIPARFSGSGSGTDFTLTISSLEPEDFAVYYCFQGSVYPFTFGQGTKLEIK",
    "koff [s⁻¹]": 0.000295
  },
  {
    "binder": "CNG-CD19-706 (antibody, V domains shown) VH: QVQLQESGPGLVKPSQTLSLTCTVSGGSIASGMGVSWIRQHPGKGLEWIGHIWWDDDKRYNPALKSRVTISVDTSKNQFSLKLSSVTAADTAVYYCARMELWSYYFDPWGQGTLVTVSS VL: EIVLTQSPATLSLSPGERATLSCSASSSVGYMHWYQQKPGQAPRLLIYDTSKLASGIPARFSGSGSGTDFTLTISSLEPEDFAVYYCFQGSVYPFTFGQGTKLEIK",
    "koff [s⁻¹]": 0.00012
  },
  {
    "binder": "CNG-CD19-103 (antibody, V domains shown) VH: QVQLVQSGAEVKKPGASVKVSCKASGYTFTDYIMHWVRQAPGQGLEWMGYINPYNDGSKYTEKFQGRVTMTSDTSISTAYMELSRLRSDDTAVYYCARGTYYYGPQLFDYWGQGTTVTVSS VL: DIVMTQTPLSLSVTPGQPASISCKSSQSLETATGTTYLNWYLQKPGQSPQLLIYRVSRRFSGVPDRFSGSGSGTDFTLKISRVEAEDVGVYYCLQLLEDPYSFGQGTKLEIK",
    "koff [s⁻¹]": 0.00109
  }
]

**Query** Bench note: what koff did CNG-CD19-101 (antibody, V domains shown) VH: QVQLVQSGAEVKKPGASVKVSCKASGYDFTDYIMHWVRQAPGQGLEWMGYINPYNDGSKYTDKFQERVTMTSDTSISTAYMELSRLRSDDTAVYYCARGTYYYGPELFDYWGQGTTVTVSS VL: DIVMTQTPLSLSVTPGQPASISCKSSQSLETTTGTTYLNWYLQKPGQSPQLLIYRASKRFSGVPDRFSGSGSGTDFTLKISRVEAEDVGVYYCLQLLEDPYTFGQGTKLEIK show?
**Result** 0.00233
